biological target: 5-HT2A (Homo sapiens); assay: Serotonin 5-HT2A in vitro radioligand binding competition assay ([3H]-DOI); parameters: purchased Epics Therapeutics S. A. (Belgium), contract assay FAST-0505B; host or cells: membrane extracts; details: [3H]-DOI competition, membrane extracts; read-out: 5HT2A R[…] ACTIVITY
Sequence (P28223 whole entry): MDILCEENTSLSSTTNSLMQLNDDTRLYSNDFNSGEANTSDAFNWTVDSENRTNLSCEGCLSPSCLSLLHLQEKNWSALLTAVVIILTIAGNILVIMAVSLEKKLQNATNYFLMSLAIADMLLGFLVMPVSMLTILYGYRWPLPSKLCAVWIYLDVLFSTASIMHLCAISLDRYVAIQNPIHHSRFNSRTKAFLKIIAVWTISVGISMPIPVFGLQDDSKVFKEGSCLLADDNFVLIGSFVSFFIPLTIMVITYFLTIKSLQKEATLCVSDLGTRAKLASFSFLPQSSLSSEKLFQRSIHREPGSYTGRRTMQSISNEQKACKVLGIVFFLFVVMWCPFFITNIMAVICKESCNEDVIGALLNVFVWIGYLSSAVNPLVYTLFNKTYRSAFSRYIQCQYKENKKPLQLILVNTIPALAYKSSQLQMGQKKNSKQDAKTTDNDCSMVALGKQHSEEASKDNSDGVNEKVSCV
pIC50: −log10 of the molar value.

Compound	pIC50
COc1ccc2c3c([nH]c2c1)CCN1CCCC1C3 (centres unmarked)	5.00 to 6.00
Cn1c2c(c3ccccc31)CC1CCCN1CC2 (centres unmarked)	6.00 to 7.00
COc1cccc2[nH]c3c(c12)CC1CCCN1CC3 (centres unmarked)	5.00 to 6.00
COc1ccc2c3c([nH]c2c1)CCN1CCC[C@@H]1C3	5.00 to 6.00
c1ccc2c3c([nH]c2c1)CCN1CCC[C@@H]1C3	5.00 to 6.00
